assay: modulators of CIT2-GFP expression in yeast, primary screen, S. cerevisiae, GFP fusion, multiplex flow cytometry (AID 1870); conditions: 3 h, at 10 µM, stronger effect = higher value;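 further: barcoded CIT2-GFP strain pooled with four other GFP strains with rapamycin as positive control; median GFP fluorescence per well over plate mean of DMSO wells so 100% = DMSO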
READOUT LABEL: percent response of DMSO control (%)
Express the result in % but write the number alone.

// worked examples, percent response of DMSO control included
COMPOUND | percent response of DMSO control (%)
CC(C)[N+](C)(CCOC(=O)C1c2ccccc2Oc2ccccc21)C(C)C | 109
COc1cc2c(cc1OC)C(c1cc3ccccc3oc1=O)=NC(C)(C)C2 | 107

### Prompt Provide only the value of recorded percent response of DMSO control for CC1(C)C2CCC1(C)C(OCC[N+](C)(C)CC(=O)OC1CCCCC1)C2 (stereo not given)
### Response 104

### Prompt For the compound `O=C1N=c2ccccc2=C1c1[nH]c(=S)[nH]c1O` , give its reported percent response of DMSO control.
### Response 106

### Prompt Quickly give me recorded percent response of DMSO control for `N/C(=N\OS(=O)(=O)c1ccc2ccccc2c1)c1cccnc1`
### Response 95.9

---

test: modulators of AGP1-GFP expression in yeast TOR pathway, primary screen, cell-based, multiplex flow cytometry, S. cerevisiae (AID 1887); conditions: 3 h, at 10 µM, stronger effect = higher value;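 further: AGP1-GFP fusion strain of S. cerevisiae within a five-strain barcoded multiplex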
Inconclusive results are not listed.
READOUT LABEL: GFP response, % of DMSO (%)
Reply numerically in %, unit not repeated.

COMPOUND | GFP response, % of DMSO, %
CCNC(=S)Nc1ccc(OC(F)(F)F)cc1 | 98.7
Cc1nc2sccn2c(=O)c1CCN1CCC(=C(c2ccc(F)cc2)c2ccc(F)cc2)CC1 | 121

### Prompt Find the measured GFP response, % of DMSO of `Oc1c(Cl)cc(Cl)c(Cl)c1Cc1c(O)c(Cl)cc(Cl)c1Cl` and report it.
### Response 93.1

---

experiment: RPL19A-GFP modulators, yeast TOR pathway, confirmation, cell-based, S. cerevisiae, flow cytometry, cherry picks, mother/daughter gates (AID 2270); settings: S. cerevisiae RPL19A-GFP strain, 3 h, at 10 µM, stronger effect = lower value, 100 = same GFP as DMSO wells
GFP response vs DMSO values by entry
The reply should be a number in %, with the unit left off.

Answered cases to consult:
COMPOUND | GFP response vs DMSO [%]
O=C(O)c1ccccc1SC1CC(=O)N(c2ccc3c(c2)OCO3)C1=O (stereo not given) | 97.6
Cc1cc(O)c(C(=O)/C=C/c2ccccc2Br)c(=O)o1 | 90.3
CCOc1ccc(C(=O)/C=C/c2ccc(SC)cc2)cc1 | 98
Cc1ccc(S(=O)(=O)/N=C(\Sc2ccccc2)c2ccccc2)cc1 | 99.5
Cc1ccc(-c2nc(NC(=O)c3nn(C)cc3[N+](=O)[O-])sc2C)cc1 | 100

Now examine the next entry.
### Prompt Answer with the recorded GFP response vs DMSO for the compound listed here: `CCSc1nnc(NC(=O)c2nc(S(=O)(=O)Cc3ccc(F)cc3)ncc2Cl)s1`
### Response 102

---

assay: RPL19A-GFP modulators, yeast TOR pathway, confirmation, cell-based, S. cerevisiae, flow cytometry, cherry picks, mother/daughter gates (AID 2270); details: S. cerevisiae RPL19A-GFP strain, 3 h, measured here: daughter cell gate, at 10 µM, stronger effect = lower value, 100 = same GFP as DMSO wells
GFP response vs DMSO values, listed per item
# include the unit after the value

Below, 2 compounds whose answers are already recorded.
COMPOUND | GFP response vs DMSO
O=S(=O)(/N=C(\Sc1ccc(Cl)cc1)c1ccccc1)c1ccccc1 | 94.4%
Cc1ccc(CCN2CC(C(=O)NCCCN(C)Cc3ccccc3)CC2=O)cc1 (stereo not drawn) | 99.3%

With those in mind, consider the next compound.
### Prompt Give GFP response vs DMSO for `Cc1noc2ncnc(Sc3ccccc3Cl)c12`
### Response 104%
